For each entry below, report its IC50 value.
- target-or-test-system: human CRTH2 (Homo sapiens)
- Construct: expressed in transfected cells; host or cells: L1.2 cells, pEAK expression vector, puromycin-selected
- Sequence (Q9Y5Y4 whole entry): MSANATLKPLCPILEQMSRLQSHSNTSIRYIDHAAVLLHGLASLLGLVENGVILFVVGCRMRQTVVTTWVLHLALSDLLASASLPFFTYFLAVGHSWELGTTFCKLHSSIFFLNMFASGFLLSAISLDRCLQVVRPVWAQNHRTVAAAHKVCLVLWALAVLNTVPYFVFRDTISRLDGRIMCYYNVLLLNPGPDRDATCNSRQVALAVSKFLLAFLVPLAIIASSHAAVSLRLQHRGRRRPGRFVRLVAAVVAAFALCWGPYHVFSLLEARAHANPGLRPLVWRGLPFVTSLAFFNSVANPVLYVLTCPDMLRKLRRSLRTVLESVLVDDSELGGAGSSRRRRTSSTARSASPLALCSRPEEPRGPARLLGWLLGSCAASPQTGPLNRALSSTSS
- test-description: Measurement of Ca2+ mobilization in the human CRTH2-transfected L1.2 cell line (Assay 1)
- Type: cell-based
- measurement-setup: PGD2-induced Ca2+ mobilization in CRTH2-transfected L1.2 cells; compounds as yielded by solid phase synthesis, purity about 40 to 90%; read-out: Activity class

query_smiles=CN(C)c1nc(Cc2ccc(NC(=O)c3ccc(Oc4ccccc4)cc3)cc2)nc(N2CCCC2)c1CC(=O)O result="< 10 nM"

Your task in this section: give IC50 for each listed record.
1. CN(CC(=O)NC1CCCC1)c1nc(Cc2ccc(NC(=O)CC3Cc4ccccc4C3)cc2)nc(Cl)c1CC(=O)O
2. CN(CC(=O)NC1CCCC1)c1nc(Cc2ccc(NC(=O)c3ccc(Cl)c(Cl)c3)cc2)nc(Cl)c1CC(=O)O
3. COc1ccc(C(=O)Nc2ccc(Cc3nc(Cl)c(CC(=O)O)c(N4CCCC4)n3)cc2)cc1Cl

Response:
1: < 10 nM; 2: < 10 nM; 3: < 10 nM

Your task in this section: give IC50 for each listed record.
1. N=C(N)Nc1ccc(C(=O)Nc2ccc(Cc3nc(Cl)c(CC(=O)O)c(N4CCCC4)n3)cc2)cc1
2. Cc1ccc(CC(=O)Nc2ccc(Cc3nc(Cl)c(CC(=O)O)c(N(C)CC(=O)NC4CCCC4)n3)cc2)cc1
3. CN(C)c1nc(Cc2ccc(NC(=O)/C=C/c3ccc(Cl)cc3)cc2)nc(N2CCCC2)c1CC(=O)O
4. CN(C)c1nc(Cc2ccc(NC(=O)c3ccc(OC(F)(F)F)cc3)cc2)ncc1CC(=O)O
5. COc1ccc(C(=O)Nc2ccc(Cc3ncc(CC(=O)O)c(N(C)C)n3)cc2)cc1OC
6. O=C(O)Cc1c(Cl)nc(Cc2ccc(NC(=O)c3ccc4ccccc4c3)cc2)nc1N1CCCC1
7. CN(CC(=O)NC1CCCC1)c1nc(Cc2ccc(NC(=O)C3CC3)cc2)nc(Cl)c1CC(=O)O

Response:
["> 500 nM", "10 to 100 nM", "< 10 nM", "< 10 nM", "100 to 500 nM", "< 10 nM", "> 500 nM"]

Your task in this section: give IC50 for each listed record.
1. CN(C)c1nc(Cc2ccc(NC(=O)c3ccc(C(F)(F)F)cc3)cc2)ncc1CC(=O)O
2. CN(CC(=O)NC1CCCC1)c1nc(Cc2ccc(NC(=O)c3ccc4ccccc4c3)cc2)ncc1CC(=O)O
3. CC(C)NC(=O)CN(C)c1nc(Cc2ccc(NC(=O)c3ccc4ccccc4c3)cc2)nc(Cl)c1CC(=O)O
4. CN(C)c1nc(Cc2ccc(NC(=O)c3cc(Cl)ccc3Cl)cc2)nc(Cl)c1CC(=O)O

Response:
1: < 10 nM; 2: < 10 nM; 3: < 10 nM; 4: < 10 nM

* * *

measured-attribute: melting point

Example entries and their recorded answers appear below.
query_smiles=CN(CC(=O)NC1CCCC1)c1nc(Cc2ccc(NC(=O)c3ccc(Cl)c(Cl)c3)cc2)nc(Cl)c1CC(=O)O measured_attribute="melting point" result="144 °C"
query_smiles=CCCCCC(=O)Nc1ccc(Cc2nc(Cl)c(CC(=O)O)c(N(C)CC(=O)NC3CCCC3)n2)cc1 measured_attribute="melting point" result="> 100 °C"
query_smiles=CN(C)c1nc(Cc2ccc(NC(=O)c3ccc(F)cc3)cc2)nc(N2CCCC2)c1CC(=O)O measured_attribute="melting point" result="132 to 135 °C"
query_smiles=COc1ccccc1/C=C/C(=O)Nc1ccc(Cc2nc(N(C)C)c(CC(=O)O)c(N3CCOCC3)n2)cc1 measured_attribute="melting point" result="125 to 128 °C"
query_smiles=CN(C)c1nc(Cc2ccc(NC(=O)COc3ccccc3)cc2)nc(N2CCOCC2)c1CC(=O)O measured_attribute="melting point" result="172 to 175 °C"
query_smiles=CN(CC(=O)N1CCCC1)c1nc(Cc2ccc(NC(=O)c3ccc4ccccc4c3)cc2)nc(Cl)c1CC(=O)O measured_attribute="melting point" result="177 °C"

# melting point (compound: CN(CC(=O)NC1CCCC1)c1nc(Cc2ccc(NC(=O)c3ccccn3)cc2)nc(Cl)c1CC(=O)O ) is > 135 °C
